meta.source: patent US8552201B2

assayedSystem: urotensin II receptors (rat aorta rings) (Rattus norvegicus)
Construct: The aortas are removed, washed and, after removing the endothelium, are cut into 4 rings; from tissue; host or cells: rat thoracic aorta rings, endothelium removed (Sprague-Dawley)
method: Contraction of rat aorta rings induced by human urotensin II
runConditions: endothelium-denuded Sprague-Dawley rat aorta rings, antagonist added 30 min before urotensin II, single concentration
Where a name gives a salt, the structure may show the parent alone.
measuredMetric: Kb (nM)

compound	measuredMetric	displayUnit	reported
Cc1cccnc1-c1ccc(C(=O)NC2(C(=O)O)CCCCC2)nc1-c1ccc(Cl)c(OCCCN(C)C)c1	Kb	nM	251
Cc1ccccc1-c1ccc(C(=O)NC2(C(=O)O)C3CC4CC(C3)CC2C4)nc1-c1ccc(Cl)c(OCCCN(C)C)c1 (stereo not shown) [Compound No. 18, hydrochloride]	Kb	nM	316

[I] CCc1ccccc1-c1ccc(C(=O)NC2(C(=O)O)CCCCC2)nc1-c1ccc(Cl)c(OCCCN(C)C)c1
[II] Cc1ccccc1-c1ccc(C(=O)NC2(C(=O)O)CCCCC2)nc1-c1ccc(Cl)c(OCCCN(C)C)c1.Cl [compound 34, hydrochloride]
Enquiry: Between these two entries, I and II , state which has the higher Kb. Answer format: the label of the selected item.
Return: I
(I: 200 nM, II: 79.4 nM)

###

assayedSystem: urotensin II receptors (rat aorta rings) (Rattus norvegicus, UniProt P49684)
Construct: The aortas are removed, washed and, after removing the endothelium, are cut into 4 rings; from tissue; host or cells: rat thoracic aorta rings, endothelium removed (Sprague-Dawley)
Sequence (P49684 whole entry): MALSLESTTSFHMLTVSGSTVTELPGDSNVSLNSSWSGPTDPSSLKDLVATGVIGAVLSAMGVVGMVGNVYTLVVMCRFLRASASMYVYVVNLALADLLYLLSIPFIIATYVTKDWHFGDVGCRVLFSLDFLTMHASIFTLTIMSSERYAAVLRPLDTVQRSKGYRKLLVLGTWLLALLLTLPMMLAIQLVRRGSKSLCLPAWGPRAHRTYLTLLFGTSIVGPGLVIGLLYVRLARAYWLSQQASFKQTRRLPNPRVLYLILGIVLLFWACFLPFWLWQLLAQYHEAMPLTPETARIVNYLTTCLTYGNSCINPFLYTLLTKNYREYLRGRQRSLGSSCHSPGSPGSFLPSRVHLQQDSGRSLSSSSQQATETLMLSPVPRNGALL
method: Contraction of rat aorta rings induced by human urotensin II
runConditions: endothelium-denuded Sprague-Dawley rat aorta rings, antagonist added 30 min before urotensin II, single concentration
Where a name gives a salt, the structure may show the parent alone.
measuredMetric: Kb (nM)

Below, each entry is followed by its recorded Kb result.
>>> print(df.to_string())
                                   compound  measuredmetric  reported
0  Cc1ccccc1-c1nc(N)c(C(=O)NC2(C(=O)O)CCCCC2)nc1-c1ccc(Cl)c(OCCCN(C)C)c1 [compound 129, hydrochloride]              Kb       158
1  Cc1ccccc1-c1ccc(C(=O)N[C@@H](CC(=O)O)C(C)C)nc1-c1ccc(Cl)c(OCCCN(C)C)c1              Kb      31.6

[a] Cc1ccccc1-c1ccc(C(=O)NC2(C(=O)O)CCCCCC2)nc1-c1ccc(Cl)c(OCCCN(C)C)c1
[b] Cc1ccc(C(C)C)cc1-c1ccc(C(=O)NC2(C(=O)O)CCCCC2)nc1-c1ccc(Cl)c(OCCCN(C)C)c1
Enquiry: Between these two entries, a and b , state which has the higher Kb. Answer format: the label of the selected item.
Return: a

###

assayedSystem: human GPR14 receptor (Homo sapiens, UniProt Q9UKP6)
Sequence (Q9UKP6 whole entry): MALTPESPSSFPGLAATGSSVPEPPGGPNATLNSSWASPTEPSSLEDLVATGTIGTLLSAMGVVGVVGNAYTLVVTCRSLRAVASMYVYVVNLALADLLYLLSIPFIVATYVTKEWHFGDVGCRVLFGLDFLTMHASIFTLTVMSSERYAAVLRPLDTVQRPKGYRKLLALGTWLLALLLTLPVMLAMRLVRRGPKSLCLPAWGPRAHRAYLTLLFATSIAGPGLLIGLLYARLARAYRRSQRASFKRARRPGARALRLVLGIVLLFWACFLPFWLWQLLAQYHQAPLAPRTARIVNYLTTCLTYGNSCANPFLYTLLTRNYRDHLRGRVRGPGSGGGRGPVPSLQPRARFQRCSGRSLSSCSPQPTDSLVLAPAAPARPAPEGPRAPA
method: FlipR test of intracellular calcium mobilization (CHO GPR14 cells, urotensin II 3 nM)
runConditions: CHOGPR14 cells, inhibition of urotensin II (3 nM final) induced Ca2+ increase, Fluo-4AM
Counter-ions that a name gives are not always drawn.
measuredMetric: IC50 (nM)

Below, each entry is followed by its recorded IC50 result.
>>> df
                                   molecule  measuredmetric  reported
0  Cc1cccnc1-c1ccc(C(=O)NC2(C(=O)O)CCCCC2)nc1-c1ccc(Cl)c(OCCCN(C)C)c1            IC50        28
1  COc1ccc(-c2ccc(C(=O)NC3(C(=O)O)CCCCC3)nc2-c2ccc(Cl)c(OCCCN(C)C)c2)c(Cl)c1            IC50        31

[a] CN(C)CCCOc1cc(-c2nc(C(=O)NC3(C(=O)O)CCCCC3)ccc2-c2ncc(Cl)cc2Cl)ccc1Cl [compound 65, hydrochloride]
[b] Cc1ccc(-c2ncc(C(=O)NC3(C(=O)O)CCCCC3)nc2-c2ccc(Cl)c(OCCCN(C)C)c2)c(C)c1
[c] Cc1ccccc1-c1ccc(C(=O)N[C@@H](CC(=O)O)C(C)C)nc1-c1ccc(Cl)c(OCCCN(C)C)c1
[d] Cc1ccccc1-c1nc(N)c(C(=O)NC2(C(=O)O)CCCCC2)nc1-c1ccc(Cl)c(OCCCN(C)C)c1 [compound 129, hydrochloride]
Enquiry: Ranking field: IC50; order: falling. Write the labels out in the order the request specifies.
Return: c, a, d, b

[I] Cc1ccccc1-c1ccc(C(=O)NC2(C(=O)O)CCCCCC2)nc1-c1ccc(Cl)c(OCCCN(C)C)c1
[II] Cc1ccc(-c2ccc(C(=O)NC3(C(=O)O)CCCCC3)nc2-c2ccc(Cl)c(OCCCN(C)C)c2)c(C)c1 [compound 66, hydrochloride]
Enquiry: Between these two entries, I and II , state which has the higher IC50. Answer format: the label of the selected item.
Return: I
(I: 24 nM, II: 4.2 nM)
